Assignment: determine reported CC50 at 72 h for the given compounds.
Assay: Cytotoxicity, alamarBlue, 72 h
Type: cell-based
Details: human, HepG2 cells; 72 h, alamarBlue; read-out: HepG2 cells CC50
Experimental: For cytotoxicity tests, several mammalian cell lines were used. […] Primary cell cultures were also used to evaluate cytotoxicity. […] The in vitro cytotoxicity of the selected nitrofurans was evaluated in HepG2, RAW 264.7 cells, splenocytes and BMDM. […] The cytotoxic effect of the compounds was measured after 72 h of incubation at 37 °C and 5 % CO2. […] Fluorescence was measured using a Varioskan Lux spectrophotometer (ThermoFisher Scientific, Waltham, MA, USA). […]
Give the value, in units of µM, as a plain number.

Query: What does the record list as CC50 at 72 h for N#Cc1ccc([N+](=O)[O-])o1 ?
Reply: 21.7

Query: What does the record list as CC50 at 72 h for O=C1CN(/N=C/c2ccc([N+](=O)[O-])o2)C(=O)N1 ?
Reply: 32

Query: What does the record list as CC50 at 72 h for O=C1NN(c2ccc(F)c(Cl)c2)C(=O)C1=Cc1ccc([N+](=O)[O-])o1 ?
Reply: 16.3

Query: What does the record list as CC50 at 72 h for NC(=O)N/N=C/c1ccc([N+](=O)[O-])o1 ?
Reply: 65.5

Query: What does the record list as CC50 at 72 h for CC1CS(=O)(=O)CCN1/N=C/c1ccc([N+](=O)[O-])o1 (centres unmarked) ?
Reply: 84.9

Sourced from paper PMC12344264
